# Target or test system: rat Nav1.2 (rNav1.2) (Rattus norvegicus)
# Construct: expressed in transfected cells
# Sequence (P04775 whole entry): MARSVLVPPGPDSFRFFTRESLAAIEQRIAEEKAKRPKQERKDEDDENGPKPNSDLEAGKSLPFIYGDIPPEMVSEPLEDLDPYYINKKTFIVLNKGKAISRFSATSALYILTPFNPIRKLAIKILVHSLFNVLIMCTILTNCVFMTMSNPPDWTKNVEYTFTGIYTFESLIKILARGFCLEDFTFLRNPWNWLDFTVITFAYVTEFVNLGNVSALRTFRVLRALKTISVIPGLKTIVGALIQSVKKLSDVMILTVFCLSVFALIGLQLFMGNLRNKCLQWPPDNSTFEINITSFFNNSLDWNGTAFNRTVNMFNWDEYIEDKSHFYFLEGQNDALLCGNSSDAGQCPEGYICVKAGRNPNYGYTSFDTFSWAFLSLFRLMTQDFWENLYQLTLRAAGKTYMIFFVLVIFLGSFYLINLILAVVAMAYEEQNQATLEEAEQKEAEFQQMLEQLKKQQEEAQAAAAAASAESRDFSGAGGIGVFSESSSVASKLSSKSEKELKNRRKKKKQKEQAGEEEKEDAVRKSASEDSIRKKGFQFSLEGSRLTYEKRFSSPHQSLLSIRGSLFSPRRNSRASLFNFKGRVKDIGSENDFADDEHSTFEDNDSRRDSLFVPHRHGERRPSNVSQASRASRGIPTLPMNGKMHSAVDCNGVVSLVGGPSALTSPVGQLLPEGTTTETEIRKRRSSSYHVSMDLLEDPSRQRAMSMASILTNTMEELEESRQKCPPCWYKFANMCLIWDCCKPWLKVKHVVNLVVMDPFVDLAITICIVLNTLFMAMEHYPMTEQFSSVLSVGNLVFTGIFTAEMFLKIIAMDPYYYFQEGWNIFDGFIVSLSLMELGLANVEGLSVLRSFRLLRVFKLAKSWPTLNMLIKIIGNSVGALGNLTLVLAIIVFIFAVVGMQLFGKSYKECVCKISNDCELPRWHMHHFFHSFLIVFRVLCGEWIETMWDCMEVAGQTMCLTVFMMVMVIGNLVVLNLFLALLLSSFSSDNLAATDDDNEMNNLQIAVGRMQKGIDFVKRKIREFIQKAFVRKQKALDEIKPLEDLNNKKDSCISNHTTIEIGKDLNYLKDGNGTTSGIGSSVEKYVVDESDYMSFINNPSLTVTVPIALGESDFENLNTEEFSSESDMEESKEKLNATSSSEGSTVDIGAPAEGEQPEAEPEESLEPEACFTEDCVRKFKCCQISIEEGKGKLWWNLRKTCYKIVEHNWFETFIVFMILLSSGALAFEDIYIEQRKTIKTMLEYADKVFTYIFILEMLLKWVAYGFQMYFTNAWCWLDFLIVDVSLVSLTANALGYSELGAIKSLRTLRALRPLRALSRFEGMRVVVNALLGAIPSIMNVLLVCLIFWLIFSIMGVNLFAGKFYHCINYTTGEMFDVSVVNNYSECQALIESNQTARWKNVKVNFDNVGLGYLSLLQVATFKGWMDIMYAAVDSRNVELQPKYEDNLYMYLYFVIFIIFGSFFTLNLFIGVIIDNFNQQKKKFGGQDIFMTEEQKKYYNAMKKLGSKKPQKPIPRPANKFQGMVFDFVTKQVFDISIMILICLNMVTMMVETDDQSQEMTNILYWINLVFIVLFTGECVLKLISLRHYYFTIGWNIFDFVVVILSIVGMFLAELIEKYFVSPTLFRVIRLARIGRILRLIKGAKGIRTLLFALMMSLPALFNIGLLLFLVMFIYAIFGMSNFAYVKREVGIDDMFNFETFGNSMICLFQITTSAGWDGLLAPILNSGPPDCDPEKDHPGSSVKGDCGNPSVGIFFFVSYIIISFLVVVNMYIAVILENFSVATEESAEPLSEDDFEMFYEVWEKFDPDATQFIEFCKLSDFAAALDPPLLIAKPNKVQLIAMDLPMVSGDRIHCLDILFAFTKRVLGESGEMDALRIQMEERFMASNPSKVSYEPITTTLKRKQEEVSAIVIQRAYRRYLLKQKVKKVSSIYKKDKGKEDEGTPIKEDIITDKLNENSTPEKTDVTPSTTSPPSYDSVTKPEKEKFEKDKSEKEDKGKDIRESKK
# Experimental details: rNav1.2 slow inactivation block, manual patchclamp
# Format: cell-based
# Conditions: HEK 293F cells stably expressing rNav1.2
Measure name: IC50

{"columns": ["Compound", "Result"],
 "data": [
  ["COc1cc(Oc2cc(F)c(S(=O)(=O)Nc3ncns3)cc2F)cc(C(F)(F)F)c1", "~2740 nM"]
]}

stdin: Retrieve IC50 measured for O=S(=O)(Nc1ncns1)c1cc(F)c(Oc2cc(C(F)(F)F)cc(C(F)(F)F)c2)cc1F and print it.
stdout: 19400 nM

stdin: Retrieve IC50 measured for O=C(Nc1nncs1)c1cc(F)c(Oc2cc(C(F)(F)F)cc(C(F)(F)F)c2)cc1F and print it.
stdout: 4320 nM

stdin: Retrieve IC50 measured for O=C(Nc1ncns1)c1cc(F)c(Oc2cc(C(F)(F)F)cc(C(F)(F)F)c2)cc1F and print it.
stdout: > 3200 nM

stdin: Retrieve IC50 measured for N#Cc1cc(Oc2cc(F)c(S(=O)(=O)Nc3ncns3)cc2F)cc(C(F)(F)F)c1 and print it.
stdout: ~32000 nM
